# MEASUREMENT DESCRIPTION: Brain concentrations of harmine, DMT and metabolites by UHPLC-MS after s.c. harmine and/or DMT
# EXPERIMENTAL PARAMETERS: Exp 1, group DMT, average of regions
MEASUREMENT LABEL: Percentage of total molar concentration of DMT and metabolites
I'd appreciate it if you included the unit after the number.

COMPOUND | READOUT VALUE
CN(C)CCc1c[nH]c2ccccc12 | 2.3%
C[N+](C)([O-])CCc1c[nH]c2ccccc12 [DMT-N-Oxide, DMT-N-oxide] | 0.1%
O=C(O)Cc1c[nH]c2ccccc12 | 97.5%

// next item, Percentage of total molar concentration of DMT and metabolites requested
Quick note, Percentage of total molar concentration of DMT and metabolites for CNCCc1c[nH]c2ccccc12 landed at 0.0%
